Biological target: human calcium-sensing receptor (CaSR) (Homo sapiens)
Construct: expressed in transfected cells
Sequence (P41180 20-1078): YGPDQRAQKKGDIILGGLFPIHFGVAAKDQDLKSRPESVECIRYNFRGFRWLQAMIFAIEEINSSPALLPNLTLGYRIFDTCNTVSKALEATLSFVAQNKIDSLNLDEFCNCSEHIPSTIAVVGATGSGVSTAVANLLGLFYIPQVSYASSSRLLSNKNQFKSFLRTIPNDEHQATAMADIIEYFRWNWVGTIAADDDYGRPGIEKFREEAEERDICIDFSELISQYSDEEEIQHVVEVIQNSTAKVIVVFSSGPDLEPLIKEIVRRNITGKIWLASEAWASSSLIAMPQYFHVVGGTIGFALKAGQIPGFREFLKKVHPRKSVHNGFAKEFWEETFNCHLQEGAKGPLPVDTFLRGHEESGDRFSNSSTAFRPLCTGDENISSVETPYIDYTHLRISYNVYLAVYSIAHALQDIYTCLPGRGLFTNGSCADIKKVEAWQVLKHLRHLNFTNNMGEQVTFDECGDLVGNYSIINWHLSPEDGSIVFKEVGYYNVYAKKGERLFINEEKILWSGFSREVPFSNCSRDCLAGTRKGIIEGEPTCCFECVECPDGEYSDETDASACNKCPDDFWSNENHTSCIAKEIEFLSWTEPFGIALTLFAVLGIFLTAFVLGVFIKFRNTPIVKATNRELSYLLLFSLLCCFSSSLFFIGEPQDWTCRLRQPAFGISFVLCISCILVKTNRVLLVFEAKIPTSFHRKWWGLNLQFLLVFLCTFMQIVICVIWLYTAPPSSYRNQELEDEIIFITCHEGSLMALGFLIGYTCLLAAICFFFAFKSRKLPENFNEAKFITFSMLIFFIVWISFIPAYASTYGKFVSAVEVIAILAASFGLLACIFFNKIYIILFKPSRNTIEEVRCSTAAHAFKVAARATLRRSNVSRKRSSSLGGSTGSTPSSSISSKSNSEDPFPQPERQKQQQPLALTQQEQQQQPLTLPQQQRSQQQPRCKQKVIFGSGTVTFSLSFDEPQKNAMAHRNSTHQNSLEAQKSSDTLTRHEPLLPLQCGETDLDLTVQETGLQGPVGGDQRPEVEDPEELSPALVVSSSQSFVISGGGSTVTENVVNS
Test: Inhibitory activity on calcium-sensing receptor (CaSR), intracellular calcium increase as indicator (FLIPR, CHO/hCaSR)
Assay type: cell-based
Conditions: CHO cells stably expressing human CaSR; inhibition of intracellular Ca increase induced by extracellular CaCl2
Method: Evaluation of inhibitory activity on calcium-sensing receptor (CaSR) using intracellular calcium increase as an indicator The preparation which is prepared by adding CHO/hCaSR to F12 medium (manufactured by Invitrogen) containing 10% fetal bovine serum to have 2×10^5 cells/mL was applied to a 384-well in an amount of 50 μL/well, and then incubated overnight in a CO2 incubator. […]
pIC50: −log10 of the molar value.
assay_endpoint: pIC50

>>> df
                                   molecule  observed_value
0  CCc1cc(C[C@@H]2CCCN2C[C@@H](O)CO[C@H](CC)c2cccc(F)c2CCC(=O)O)ccc1Cl [Example 109]          ≥ 5.50
1  Cc1ccc(C[C@@H]2CCCN2C[C@@H](O)CO[C@H](C)c2ccc(F)c(C)c2CCC(=O)O)cc1F [Example 20]          ≥ 5.47
2  CC[C@@H](OC[C@H](O)CN1CCC[C@H]1Cc1ccc(C)c(Cl)c1)c1cccc(OC)c1CCC(=O)O [Example 171]          ≥ 5.50
3  CC[C@@H](OC[C@H](O)CN1CCC[C@H]1Cc1ccc(C)c(F)c1)c1ccc(Cl)cc1CCC(=O)O [Example 95]          ≥ 5.49
4  C[C@@H](OC[C@H](O)CN1CCC[C@H]1Cc1ccc(Cl)c(Cl)c1)c1ccccc1CCC(=O)O [Example 88]          ≥ 5.48
5  CC[C@@H](OC[C@H](O)CN1CCC[C@H]1Cc1ccc(Cl)c(Cl)c1)c1cc(F)c(C)cc1CCC(=O)O [Example 118]          ≥ 5.52

Field request: pIC50 | item: COc1cccc([C@@H](C)OC[C@H](O)CN2CCC[C@H]2Cc2ccc(Cl)c(Cl)c2)c1CCC(=O)O [Example 164]
≥ 5.50

Also check C[C@@H](OC[C@H](O)CN1CCC[C@H]1Cc1ccc(Cl)c(F)c1)c1ccc(Cl)cc1CCC(=O)O [Example 131]
≥ 5.49

Another molecule to check: CC[C@@H](OC[C@H](O)CN1CCC[C@H]1Cc1ccc(C)c(F)c1)c1ccccc1CCC(=O)O [Example 19]
≥ 5.46

Okay, and C[C@@H](OC[C@H](O)CN1CCC[C@H]1Cc1ccc(Cl)c(Cl)c1)c1cccc(F)c1CCC(=O)O [Example 92] ?
≥ 5.49

For Cc1ccc(C[C@@H]2CCCN2C[C@@H](O)CO[C@H](C)c2ccccc2CCC(=O)O)cc1Cl [Example 84] then?
≥ 5.46

Another: CC[C@@H](OC[C@H](O)CN1CCC[C@H]1Cc1ccc(Cl)c(Cl)c1)c1ccc(C)cc1CCC(=O)O [Example 102]
≥ 5.50

Another molecule: CC[C@@H](OC[C@H](O)CN1CCC[C@H]1Cc1ccc(C)c(F)c1)c1cc(F)ccc1CCC(=O)O [Example 43]
≥ 5.47

Now try CCC[C@@H](OC[C@H](O)CN1CCC[C@H]1Cc1ccc(C)c(F)c1)c1cccc(Cl)c1CCC(=O)O [Example 125] .
≥ 5.50

Request: C[C@@H](OC[C@H](O)CN1CCC[C@H]1Cc1ccc(Cl)c(F)c1)c1cccc(F)c1CCC(=O)O [Example 91]
≥ 5.48

Another molecule: COc1cc(F)cc([C@@H](C)OC[C@H](O)CN2CCC[C@H]2Cc2ccc(C)c(F)c2)c1CCC(=O)O [Example 33]
≥ 5.49

Try this molecule next: CC[C@@H](OC[C@H](O)CN1CCC[C@H]1Cc1ccc(C)c(F)c1)c1cc(Cl)ccc1CCC(=O)O [Example 94]
≥ 5.49

Now consider CCC[C@@H](OC[C@H](O)CN1CCC[C@H]1Cc1ccc(C)c(F)c1)c1ccc(C)cc1CCC(=O)O [Example 64] and answer again.
≥ 5.48

Same thing, different molecule: Cc1ccc([C@@H](C)OC[C@H](O)CN2CCC[C@H]2Cc2ccc(Cl)c(Cl)c2)c(CCC(=O)O)c1 [Example 97]
≥ 5.49

Also Cc1ccc(C[C@@H]2CCCN2C[C@@H](O)CO[C@H](C)c2cccc(Cl)c2CCC(=O)O)cc1F [Example 80] ?
≥ 5.48

Try Cc1ccc(C[C@@H]2C[C@@H](O)CN2C[C@@H](O)CO[C@H](C)c2ccccc2CCC(=O)O)cc1F [Example 49] next.
≥ 5.46

Do the same for CCc1cc(C[C@@H]2CCCN2C[C@@H](O)CO[C@H](C)c2ccccc2CCC(=O)O)ccc1Cl [Example 89] please
≥ 5.47

For CCc1cc(C[C@@H]2CCCN2C[C@@H](O)CO[C@H](CC)c2ccc(Cl)cc2CCC(=O)O)ccc1Cl [Example 101] then?
≥ 5.51

Try this molecule too: CCc1cc(C[C@@H]2CCCN2C[C@@H](O)CO[C@H](C)c2ccc(C)cc2CCC(=O)O)ccc1Cl [Example 98]
≥ 5.48

Try this molecule next: CC[C@@H](OC[C@H](O)CN1CCC[C@H]1Cc1ccc(Cl)c(Cl)c1)c1cc(F)c(F)cc1CCC(=O)O [Example 117]
≥ 5.52

Again, but for Cc1ccc(C[C@@H]2CCCN2C[C@@H](O)CO[C@H](C)c2cc(C(F)(F)F)ccc2CCCCC(=O)O)cc1F [Example 60]
≥ 5.53

What do you get for Cc1ccc(C[C@@H]2CCCN2C[C@@H](O)CO[C@H](C)c2ccc(Cl)cc2CCCCC(=O)O)cc1F [Example 81] ?
≥ 5.50

Record: Cc1cccc([C@@H](C)OC[C@H](O)CN2CCC[C@H]2Cc2ccc(Cl)c(F)c2)c1CCC(=O)O [Example 170]
≥ 5.48

Try CC[C@@H](OC[C@H](O)CN1CCC[C@H]1Cc1ccc(C)c(F)c1)c1cc(F)c(F)cc1CCC(=O)O [Example 154] next.
≥ 5.49
